This collection of values is drawn from ChEMBL document CHEMBL2046405.

target: Beta-secretase 1 (Homo sapiens); test: Inhibition of human recombinant BACE1 using 7-methoxycoumarin-4-yl)acetyl-Ser-Glu-Val-Asn-Leu*Asp-Ala- Glu-Phe-Arg-Lys(2,4-dinitrophenyl)-Arg-Arg-NH2 as substrate at 2 uM by FRET assay
Where a SMILES comes first, the peptide text is derived from it.
measure-name: inhibition (%)

{"compound": "CC(C)C[C@H](NC(=O)[C@@H](NC(=O)[C@@H](N)CCC(=O)O)C(C)C)C(=O)N[C@@H](Cc1ccccc1)C(=O)N[C@H](CS)C(=O)N[C@@H](C)C(=O)N[C@@H](CCC(=O)O)C(=O)N[C@@H](Cc1ccccc1)C(=O)O", "observed": 28}

(P) CC(C)C[C@H](NC(=O)[C@@H](NC(=O)[C@@H](N)CCC(=O)O)C(C)C)C(=O)N[C@@H](Cc1ccccc1)C(=O)N[C@H](CO)C(=O)N[C@@H](C)C(=O)N[C@@H](CCC(=O)O)C(=O)N[C@@H](Cc1ccccc1)C(=O)O
(Q) CC(C)C[C@H](NC(=O)[C@@H](NC(=O)[C@@H](N)CCC(=O)O)C(C)C)C(=O)N[C@@H](Cc1ccccc1)C(=O)O (H-EVLF-OH)
Exam item: Hi there! Just curious which has the higher inhibition between P and Q . // caller expects the label of the chosen entry
Marked response: P
(P: 28%, Q: 8%)

* * *

target: Beta-secretase 1 (Homo sapiens); experiment: Activity of human recombinant BACE1 after 1 hr
The source made the active and inactive calls. The calls are words filed in the database; no cut-off is given here.

{"structure-as-smiles": "CC(C)C[C@H](NC(=O)[C@@H](NC(=O)[C@@H](N)CNC(=O)c1[nH]c(=O)[nH]c(=O)c1F)C(C)C)C(=O)N[C@@H](Cc1ccccc1)C(=O)N[C@H](CC(N)=O)C(=O)O", "Activity": "inactive"}
{"structure-as-smiles": "CC(C)C[C@H](NC(=O)[C@@H](NC(=O)[C@@H](N)CNC(=O)c1[nH]c(=O)[nH]c(=O)c1F)C(C)C)C(=O)N[C@@H](Cc1ccccc1)C(=O)N[C@@H](CO)C(=O)O", "Activity": "inactive"}
{"structure-as-smiles": "CC(C)C[C@H](NC(=O)[C@@H](NC(=O)[C@@H](N)CNC(=O)c1[nH]c(=O)[nH]c(=O)c1F)C(C)C)C(=O)N[C@@H](Cc1ccccc1)C(=O)N[C@H](CO)C(=O)O", "Activity": "inactive"}
{"structure-as-smiles": "CC(C)C[C@H](NC(=O)[C@@H](NC(=O)[C@@H](N)CNC(=O)c1[nH]c(=O)[nH]c(=O)c1F)C(C)C)C(=O)N[C@@H](Cc1ccccc1)C(=O)N[C@@H](CC(N)=O)C(=O)O", "Activity": "inactive"}

* * *

target: Beta-secretase 1 (Homo sapiens, UniProt P56817); assay: Inhibition of human recombinant BACE1 using 7-methoxycoumarin-4-yl)acetyl-Ser-Glu-Val-Asn-Leu*Asp-Ala- Glu-Phe-Arg-Lys(2,4-dinitrophenyl)-Arg-Arg-NH2 as substrate at 0.2 uM by FRET assay
Sequence (P56817 whole entry): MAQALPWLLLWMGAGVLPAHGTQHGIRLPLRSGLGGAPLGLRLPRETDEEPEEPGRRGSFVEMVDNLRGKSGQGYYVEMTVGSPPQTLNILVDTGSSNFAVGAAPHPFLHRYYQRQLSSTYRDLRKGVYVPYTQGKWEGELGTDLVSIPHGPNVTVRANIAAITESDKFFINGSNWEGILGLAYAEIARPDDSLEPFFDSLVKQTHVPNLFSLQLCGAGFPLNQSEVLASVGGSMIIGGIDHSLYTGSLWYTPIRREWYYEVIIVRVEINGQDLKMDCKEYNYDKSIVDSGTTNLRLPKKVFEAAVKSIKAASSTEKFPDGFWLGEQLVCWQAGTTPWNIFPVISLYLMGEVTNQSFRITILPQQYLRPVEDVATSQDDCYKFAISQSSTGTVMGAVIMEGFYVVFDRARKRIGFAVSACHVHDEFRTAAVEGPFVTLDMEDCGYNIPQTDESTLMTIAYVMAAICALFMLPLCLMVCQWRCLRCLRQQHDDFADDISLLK
Where a SMILES comes first, the peptide text is derived from it. [ ]: non-standard residue; d: D form. The star is where a group is joined. Orotyl(5-F) = O=C(c1[nH]c(=O)[nH]c(=O)c1F)*; Dap = NC[C@H](N)C(=O)O
measure-name: inhibition (%)

{"compound": "CC(C)C[C@H](NC(=O)[C@@H](NC(=O)[C@@H](N)CNC(=O)c1[nH]c(=O)[nH]c(=O)c1F)C(C)C)C(=O)N[C@@H](Cc1ccccc1)C(=O)N[C@@H](CO)C(=O)O", "inhibition, %": 48}
{"compound": "CC(C)[C@H](NC(=O)[C@@H](N)CNC(=O)c1[nH]c(=O)[nH]c(=O)c1F)C(=O)N[C@@H](CC1CCCCC1)C(=O)N[C@@H](Cc1ccccc1)C(=O)N[C@H](CO)C(=O)O", "inhibition, %": 54}
{"compound": "CC(C)C[C@H](NC(=O)[C@@H](NC(=O)[C@@H](N)CNC(=O)c1[nH]c(=O)[nH]c(=O)c1F)C(C)C)C(=O)N[C@@H](Cc1ccccc1)C(=O)N[C@@H](CC(N)=O)C(=O)O", "inhibition, %": 56}
{"compound": "CC(C)C[C@H](NC(=O)[C@@H](NC(=O)[C@@H](N)CNC(=O)c1[nH]c(=O)[nH]c(=O)c1F)C(C)C)C(=O)N[C@@H](Cc1ccccc1)C(=O)N[C@H](CC(N)=O)C(=O)O", "inhibition, %": 65}
{"compound": "CC(C)[C@H](NC(=O)[C@@H](N)CNC(=O)c1[nH]c(=O)[nH]c(=O)c1F)C(=O)N[C@@H](CC1CCCCC1)C(=O)N[C@@H](Cc1ccccc1)C(=O)N[C@H](CC(N)=O)C(=O)O", "inhibition, %": 58}
{"compound": "CC(C)C[C@H](NC(=O)[C@@H](NC(=O)[C@@H](N)CNC(=O)c1[nH]c(=O)[nH]c(=O)c1F)C(C)C)C(=O)N[C@@H](Cc1ccccc1)C(=O)N[C@@H](C(=O)O)C(C)C", "inhibition, %": 69}
{"compound": "CC(C)C[C@H](NC(=O)[C@@H](NC(=O)[C@@H](N)CNC(=O)c1[nH]c(=O)[nH]c(=O)c1F)C(C)C)C(=O)N[C@@H](Cc1ccccc1)C(=O)N[C@H](CO)C(=O)O", "inhibition, %": 57}
{"compound": "CC(C)C[C@H](NC(=O)[C@@H](NC(=O)[C@@H](N)CNC(=O)c1[nH]c(=O)[nH]c(=O)c1F)C(C)C)C(=O)N[C@@H](Cc1ccccc1)C(=O)N[C@H](C)C(=O)O", "inhibition, %": 53}
{"compound": "CC(C)C[C@H](NC(=O)[C@@H](NC(=O)[C@@H](N)CNC(=O)c1[nH]c(=O)[nH]c(=O)c1F)C(C)C)C(=O)N[C@@H](Cc1ccccc1)C(=O)O (H-[Dap](Orotyl(5-F))VLF-OH)", "inhibition, %": 54}
